tested on: MS2 coat protein; test: apparent KD of MS2 coat protein; designed switch direction (-1 OFF switch, 1 ON switch): -1; higher = weaker reporter binding; details: input ligand: FMN 200 uM
Please respond with reported apparent KD of MS2 coat protein for every item in the list.
One number for each entry, in nM.

Example cases with answers are listed next.
CONSTRUCT SEQUENCE	SYSTEM UNDER TEST	apparent KD of MS2 coat protein (nM)
CGGUAAAUAGGAUAUACAUGAGGAUCACCCAUGUUCCAUAGCACUCGGAGGGUUCCCAGUAGAAGGGUUGGCCU [EX3 C.17] (Eterna round: R97, puzzle: Exclusion 3)	MS2 coat protein	16
UUUUCGUAAGGAUAUGGUUAGAUCUACGAAAGUAGAUCUAACCAGAAGGUACAUGAGGAUCACCCAUGUUGAUA [Mod of Brourd 21 - Jieux - Exclusion 4] (Eterna round: R97, puzzle: Exclusion 4)	MS2 coat protein	32
UAAUGGACAGGAUAUACAUGAGGAUCACCCAUGUCGGCCGGUCCUGUUCUAAGAGCGAGUAGAAGGGUCACGUU [Eternabot (L1) Solution 4] (Eterna round: R97, puzzle: Exclusion 3)	MS2 coat protein	11.6
GAAUUAAUUAAUUAAUAAUACAUGAGGAUCACCCAUGUAGAUCCUACAUACAAGCUUUGUAGCUCGUCUUAUAAUUA [Stov1/3-A2] (Eterna round: R97, puzzle: Sensor, turn-off variant 1)	MS2 coat protein	330
UAAAAGCUAGGAUAUGCAAGGUCCGACAUGAGGAUCACCCAUGUGCUCCUAUGCACAUUUGCAGAAGGAGCGAAAA [EX5 A.6] (Eterna round: R97, puzzle: Exclusion 5)	MS2 coat protein	537
AGUUGUUGCGCAGGAUAUGAGGAUCACCCAUAGAAGGAUAUCGAAAGAGAAGGUCUGAGGAUUACCCAGAAGGGCGUGAUGACA [pwkr exNG2 2xF5 2xFMN.8] (Eterna round: R96, puzzle: Exclusion NG 2)	MS2 coat protein	905
AGUUAGAAAGGAUAUACAUGAGGAUCACCCAUGUAGGGCUGUUAGAGACCCGGUCUCUGUAGAAGGUUCGAACU [EX3 C.16] (Eterna round: R97, puzzle: Exclusion 3)	MS2 coat protein	30.8
GUACUAGAAUAUCAGUCGCACAUGAGGAUCACCCAUGUCAUGGGUAGAUAAAUAAAUAAAGAUACUGCUCGUCUUAU [Cac sensor turnoff var1 sub1] (Eterna round: R97, puzzle: Sensor, turn-off variant 1)	MS2 coat protein	277

From here, focus on the item given below.
Prompt: Any idea what apparent KD of MS2 coat protein was measured for AGAUCGUCAGGAUAUACAUGAGGAUCACCCAUGUGUAGUCCAAAUUUGACUACAACAUGUAGAAGGGACGAUCG [Exclusion 3 (MOD2 of #1 Marzena11)] (Eterna round: R97, puzzle: Exclusion 3) ?
Completion: 209
